# target or system: Caspase-1 (Homo sapiens, UniProt P29466)
# Sequence (P29466 whole entry): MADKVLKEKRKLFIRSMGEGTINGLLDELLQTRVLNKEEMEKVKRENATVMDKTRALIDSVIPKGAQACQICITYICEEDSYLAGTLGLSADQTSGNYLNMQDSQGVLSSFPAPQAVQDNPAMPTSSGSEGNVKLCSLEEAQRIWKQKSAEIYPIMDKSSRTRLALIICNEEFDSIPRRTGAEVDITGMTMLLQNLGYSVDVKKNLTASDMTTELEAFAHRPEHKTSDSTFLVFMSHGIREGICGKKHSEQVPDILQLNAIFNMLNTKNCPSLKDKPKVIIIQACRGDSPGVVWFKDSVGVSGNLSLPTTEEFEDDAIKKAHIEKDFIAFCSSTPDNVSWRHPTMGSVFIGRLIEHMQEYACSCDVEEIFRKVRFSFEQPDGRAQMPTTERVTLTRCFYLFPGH
# assay summary: Inhibition of human recombinant caspase 1
test readout: IC50 (nM)

Please review the entries below; each comes with its answer.
N#CC(C#N)=C1C(=O)N(Cc2ccccc2)c2ccc(S(=O)(=O)N3CCC[C@H]3COc3ccccc3)cc21 = 6220
N#CC(C#N)=C1C(=O)N(Cc2ccc(Br)cc2)c2ccc(S(=O)(=O)N3CCC[C@H]3COc3ccccc3)cc21 = 5700
N#CC(C#N)=C1C(=O)N(Cc2ccc(O)cc2)c2ccc(S(=O)(=O)N3CCC[C@H]3COc3ccccc3)cc21 = 2300
N#CC(C#N)=C1C(=O)N(Cc2ccc(O)cc2)c2ccc(S(=O)(=O)N3CCC[C@H]3COc3cccnc3)cc21 = 2720
CN1C(=O)C(=C(C#N)C#N)c2cc(S(=O)(=O)N3CCC[C@H]3COc3ccccc3)ccc21 = 2830

a: N#CC(C#N)=C1C(=O)N(Cc2ccccc2)c2ccc(S(=O)(=O)N3CCC[C@H]3COc3cccnc3)cc21
b: N#CC(C#N)=C1C(=O)Nc2ccc(S(=O)(=O)N3CCC[C@H]3COc3ccccc3)cc21
**Query** When a and b are compared, which has the higher number for IC50? # answer = label of selected item
**Result** a
